Every entry's value here was drawn from patent US10266550B2.

Target system: E. coli topoisomerase I (Escherichia coli (strain K12), UniProt P06612)
Sequence (P06612 whole entry, looked up): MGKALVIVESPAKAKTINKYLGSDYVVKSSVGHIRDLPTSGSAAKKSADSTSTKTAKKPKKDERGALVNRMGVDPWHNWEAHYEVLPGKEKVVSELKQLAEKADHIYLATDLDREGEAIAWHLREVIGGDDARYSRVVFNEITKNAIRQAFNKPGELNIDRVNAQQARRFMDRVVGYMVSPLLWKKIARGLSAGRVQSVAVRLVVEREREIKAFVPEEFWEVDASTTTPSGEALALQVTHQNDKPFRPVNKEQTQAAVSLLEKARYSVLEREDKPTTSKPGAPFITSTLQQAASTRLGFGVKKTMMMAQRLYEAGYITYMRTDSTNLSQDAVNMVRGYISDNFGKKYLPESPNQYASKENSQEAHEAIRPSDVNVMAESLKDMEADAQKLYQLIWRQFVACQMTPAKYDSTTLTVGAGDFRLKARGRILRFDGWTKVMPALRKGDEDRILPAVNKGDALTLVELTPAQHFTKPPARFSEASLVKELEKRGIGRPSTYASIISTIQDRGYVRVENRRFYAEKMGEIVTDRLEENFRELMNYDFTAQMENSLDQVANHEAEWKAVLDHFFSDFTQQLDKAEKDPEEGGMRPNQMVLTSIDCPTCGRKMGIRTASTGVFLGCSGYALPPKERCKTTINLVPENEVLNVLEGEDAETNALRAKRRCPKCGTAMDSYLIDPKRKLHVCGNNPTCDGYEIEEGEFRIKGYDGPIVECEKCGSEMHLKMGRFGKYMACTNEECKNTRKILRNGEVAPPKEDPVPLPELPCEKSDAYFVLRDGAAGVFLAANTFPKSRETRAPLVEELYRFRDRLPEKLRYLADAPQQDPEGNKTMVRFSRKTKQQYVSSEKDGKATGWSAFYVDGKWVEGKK
Protocol description: biochemical
Assay type: biochemical
Experimental parameters: Table 3; E. coli topoisomerase I; single values set for ranges and bounds; read-out: IC50 (μM) used for CoMFA
IC50 less than 4 µM is Yes; IC50 greater than or equal to 4 µM is No.

Say whether its IC50 is strictly beneath 4 µM. Entry: Nc1ccc2c(c1)Oc1c(NC34CC5CC(CC(C5)C3)C4)c(F)cc3c(=O)c(C(=O)O)cn-2c13 [Compound 11f]
No

What do we get for N#Cc1ccc2c(c1)Oc1c(F)c(F)cc3c(=O)c(C(=O)O)cn-2c13 ?
No

Check Nc1ccc2c(c1)Oc1c(N3CC[C@H](N)C3)c(F)cc3c(=O)c(C(=O)O)cn-2c13 [Compound 17a] too.
Yes

// same read-out, input: CCOC(=O)c1cn2c3c(c(F)c(F)cc3c1=O)Oc1cc(C(F)(F)F)ccc1-2
No

----------
Target system: Mycobacterium tuberculosis topoisomerase I (Mycobacterium tuberculosis (strain ATCC 25618 / H37Rv))
Protocol description: Mycobacterium tuberculosis topoisomerase I inhibition
Experimental parameters: Table 2; read-out: IC50 against Mycobacterium tuberculosis topoisomerase I
Recorded IC50 for the following compounds
Kindly answer with a numeric value in nM, unit omitted.

Compound	Observation type	Quantitative result
Nc1ccc2c(c1)Oc1c(N3CCC(N4CCCCC4)CC3)c(F)cc3c(=O)c(C(=O)O)cn-2c13 [Compound 11g]	IC50	240

Let's switch to this compound now.
Requested read-out: IC50. Entry: Nc1ccc2c(c1)Oc1c(N3CCOCC3)c(F)cc3c(=O)c(C(=O)O)cn-2c13 [Compound 11d]
480

----------
Target system: Human topoisomerase I (Homo sapiens (Human), UniProt P11387)
Sequence (P11387 whole entry): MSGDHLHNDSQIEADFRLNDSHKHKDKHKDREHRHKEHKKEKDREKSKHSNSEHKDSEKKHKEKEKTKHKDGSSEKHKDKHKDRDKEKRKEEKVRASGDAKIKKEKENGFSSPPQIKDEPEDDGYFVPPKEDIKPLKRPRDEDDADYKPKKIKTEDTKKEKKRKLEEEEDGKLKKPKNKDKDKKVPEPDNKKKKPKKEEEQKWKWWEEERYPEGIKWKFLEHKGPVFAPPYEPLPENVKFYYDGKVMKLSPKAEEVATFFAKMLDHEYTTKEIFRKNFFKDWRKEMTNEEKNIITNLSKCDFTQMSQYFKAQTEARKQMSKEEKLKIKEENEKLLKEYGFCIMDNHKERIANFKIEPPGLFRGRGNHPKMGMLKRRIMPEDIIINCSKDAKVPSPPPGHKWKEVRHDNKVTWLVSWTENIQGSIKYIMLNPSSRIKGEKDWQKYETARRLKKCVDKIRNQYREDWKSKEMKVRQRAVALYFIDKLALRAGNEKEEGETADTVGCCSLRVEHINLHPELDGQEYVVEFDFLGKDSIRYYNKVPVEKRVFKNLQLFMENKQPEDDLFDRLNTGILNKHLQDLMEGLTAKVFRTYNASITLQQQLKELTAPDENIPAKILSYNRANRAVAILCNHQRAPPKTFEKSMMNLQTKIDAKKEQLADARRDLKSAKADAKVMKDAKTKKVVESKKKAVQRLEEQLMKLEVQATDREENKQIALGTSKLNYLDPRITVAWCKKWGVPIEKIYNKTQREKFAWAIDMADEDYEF
Binarize IC50 at 30 µM; below is y, at or above is n.

Completed entries (count: 3):
Compound	Target system	Class assignment
Nc1ccc2c(c1)Oc1c(F)c(F)cc3c(=O)c(C(=O)O)cn-2c13	Human topoisomerase I (Homo sapiens (Human), UniProt P11387)	n
Nc1ccc2c(c1)Oc1c(N3CCC(N4CCCCC4)CC3)c(F)cc3c(=O)c(C(=O)O)cn-2c13 [Compound 11g]	Human topoisomerase I (Homo sapiens (Human), UniProt P11387)	y
Nc1ccc2c(c1)Oc1c(N3CCOCC3)c(F)cc3c(=O)c(C(=O)O)cn-2c13 [Compound 11d]	Human topoisomerase I (Homo sapiens (Human), UniProt P11387)	y

Does the reported IC50 of CN1CCN(c2c(F)cc3c(=O)c(C(=O)O)cn4c3c2Oc2cc([N+](=O)[O-])ccc2-4)CC1 [Compound 10a] stay below 30 µM?
n

Another: O=C(O)c1cn2c3c(c(F)c(F)cc3c1=O)Oc1cc([N+](=O)[O-])c(Cl)cc1-2
n

What do we get for CN1CCN(c2c(F)cc3c(=O)c(C(=O)O)cn4c3c2Oc2cc(N)ccc2-4)CC1 [Compound 11a] ?
y

Please do the same for N[C@H]1CCN(c2c(F)cc3c(=O)c(C(=O)O)cn4c3c2Oc2cc([N+](=O)[O-])ccc2-4)C1 as well.
y

Please answer likewise for Nc1ccc2c(c1)Oc1c(N3CCNCC3)c(F)cc3c(=O)c(C(=O)O)cn-2c13 [Compound 11b]
y

----------
System: B. subtilis (ATCC 6633) WT
Protocol description: MIC, microdilution in Mueller-Hinton Broth
Experimental parameters: wild type; read-out: Whole cell based antibacterial activity (MIC) B. subtilis (ATCC 6633) WT
Observation type: MIC

Compound	Target system	Observation type	Result
CCOC(=O)c1cn2c3c(c(F)c(F)cc3c1=O)Oc1cc(C(F)(F)F)ccc1-2	B. subtilis (ATCC 6633) WT	MIC	>200 µM
N#Cc1ccc2c(c1)Oc1c(F)c(F)cc3c(=O)c(C(=O)O)cn-2c13	B. subtilis (ATCC 6633) WT	MIC	>200 µM

# MIC lookup, item Nc1ccc2c(c1)Oc1c(NC34CC5CC(CC(C5)C3)C4)c(F)cc3c(=O)c(C(=O)O)cn-2c13 [Compound 11f]
12.5 µM

Moving on to the next compound: Nc1ccc2c(c1)Oc1c(N3CC[C@H](N)C3)c(F)cc3c(=O)c(C(=O)O)cn-2c13 [Compound 17a]
6.25 µM

And the next one, CC(C)(C)OC(=O)N[C@H]1CCN(c2c(F)cc3c(=O)c(C(=O)O)cn4c3c2Oc2cc(N)ccc2-4)C1 [Compound 15a] ?
12.5 µM
